Dear all, this message contains IC50 results, target or system Proto-oncogene tyrosine-protein kinase Src (Homo sapiens).

Some solved entries appear below for comparison.
- [N-]=[N+]=NCCn1nc(-c2ccccc2)c2c(N)ncnc21: 6.2 µM
- Nc1ncnc2c1c(-c1ccccc1)nn2Cc1cn(CC(=O)Nc2ccccc2)nn1: 23.1 µM
- Nc1ncnc2c1c(-c1ccccc1)nn2Cc1cn(CC(=O)c2cccs2)nn1: > 75 µM
- Nc1ncnc2c1c(-c1ccccc1)nn2Cc1cn(CC(=O)Nc2ccc(F)cc2)nn1: 16.4 µM

Kindly consider the entry below.
Summary line: "Nc1ncnc2c1c(-c1ccccc1)nn2Cc1cn(CC(=O)Nc2ccc(Cl)cc2)nn1" , Proto-oncogene tyrosine-protein kinase Src (Homo sapiens), reported IC50 = > 75 µM
